Target: Cytochrome P450 3A4 (Homo sapiens) (UniProt P08684)
Sequence (P08684 whole entry, looked up): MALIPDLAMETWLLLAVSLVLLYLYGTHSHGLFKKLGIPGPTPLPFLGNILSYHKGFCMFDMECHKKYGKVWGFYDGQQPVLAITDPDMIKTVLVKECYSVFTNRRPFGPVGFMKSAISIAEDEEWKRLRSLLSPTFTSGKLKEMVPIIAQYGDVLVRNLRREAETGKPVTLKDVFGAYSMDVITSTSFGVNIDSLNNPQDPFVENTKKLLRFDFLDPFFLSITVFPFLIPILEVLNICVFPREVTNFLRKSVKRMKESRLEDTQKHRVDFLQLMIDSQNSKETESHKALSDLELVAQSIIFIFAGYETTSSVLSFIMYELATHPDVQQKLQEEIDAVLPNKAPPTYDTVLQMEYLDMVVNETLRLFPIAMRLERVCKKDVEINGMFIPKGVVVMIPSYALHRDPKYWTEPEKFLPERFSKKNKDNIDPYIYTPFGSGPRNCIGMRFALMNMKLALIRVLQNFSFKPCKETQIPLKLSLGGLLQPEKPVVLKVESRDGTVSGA
Experiment: Cytochrome panel assay with activity outcomes; further: on the % scale 0 is the no-effect control and ±100 the full control effect
Conditions: recombinant CYP, pro-luciferin dealkylation, luminescence, p450-cyp3a4; series mostly up to 57.1 µM
Screen size: about 16,000 compounds; about 5,100 (32%) were called active. About 25% were inconclusive and are not listed. Some of the results follow.
Provide the reported activity, negative = inhibition of each item.

### Prompt # query: activity, negative = inhibition of entry `CCCc1nnc(NC(=O)CCC(=O)NCc2ccccc2OC)s1`
### Response 2.33% [at 2.29 µM] (inactive)

### Prompt Can you share its activity, negative = inhibition? I mean this molecule: `CCCCCc1nnc(NC(=O)C(=O)OCC)s1`
### Response 1.6% [at 2.29 µM] (inactive)

### Prompt So what's the measured activity, negative = inhibition for this one? `C[C@]1(O)CC[C@H]2[C@H]3CC=C4N5CCN=C5CC[C@@]4(C)[C@H]3CC[C@@]21C`
### Response -12.7% [at 11.4 µM] (inactive)

### Prompt Dear colleague, I am looking for the recorded activity, negative = inhibition of the following molecule: `CN=C(N)/N=C(\N)Nc1cc2ccccc2c2ccccc12`
### Response -14.5% [at 11.4 µM] (inactive)

### Prompt Consider the molecule shown here: `NCc1ccc(C(=O)O)cc1` What is its recorded activity, negative = inhibition?
### Response -14.2% [at 11.4 µM] (inactive)

### Prompt Consider the molecule shown here: `O=C(O)[C@@H]1CCCN1Cc1cc2ccccc2c2ccccc12` What is its recorded activity, negative = inhibition?
### Response -12.1% [at 11.4 µM] (inactive)

### Prompt Query (molecule): CC1=NN(c2ccc(F)cc2)C(=O)C1C(c1cccc(O)c1)c1c(C)[nH]n(-c2ccc(F)cc2)c1=O (configuration not stated) ; field requested: activity, negative = inhibition
### Response 2.16% [at 2.29 µM] (inactive)

### Prompt Bench note: what activity, negative = inhibition did `C[C@@H]1O[C@@H](O)[C@@H](O)[C@H](O)[C@H]1O` show?
### Response -3.34% [at 11.4 µM] (inactive)

### Prompt Field request: activity, negative = inhibition | item: `Cc1cc2c(c(=O)o1)[C@@H](O)[C@H]1O[C@@H]1C2=O`
### Response -17.6% [at 11.4 µM] (inactive)

### Prompt Value lookup for activity, negative = inhibition; key = `O=C(Nc1cccc(C(F)(F)F)c1)c1ccc(Cn2cc(Br)cn2)o1`
### Response -0.795% [at 2.29 µM] (inactive)

### Prompt Any idea what its activity, negative = inhibition is? The molecule is `C[C@H]1C[C@H]2[C@H]3CCC4=CC(=O)C=C[C@@]4(C)[C@]3(F)[C@H](O)C[C@]2(C)[C@@]1(O)C(=O)COP(=O)(O)O`
### Response 7.91% [at 11.4 µM] (inactive)

### Prompt Requested read-out: activity, negative = inhibition. Entry: `COc1ccc(CN[C@H](C)C(=O)O)cc1`
### Response 0.14% [at 11.4 µM] (inactive)

### Prompt Please look up its activity, negative = inhibition: `Cc1cc2nc3[nH]c4c(Cl)cc(Cl)cc4c3nc2cc1C`
### Response -18.7% [at 11.4 µM] (inactive)

### Prompt If you can, please state the reported activity, negative = inhibition value of `NCCSc1nc(-c2ccccc2)c(-c2ccccc2)o1` .
### Response -23.1% [at 11.4 µM] (inactive)

### Prompt Record request: activity, negative = inhibition value, item CCOc1ccccc1NC(=O)C1Cc2ccccc2CN1S(C)(=O)=O (configuration not stated)
### Response -25.2% [at 11.4 µM] (inactive)

### Prompt Look up activity, negative = inhibition: `N#CC(C#N)=CNCCN1CCN(C=C(C#N)C#N)CC1`
### Response -20.1% [at 11.4 µM] (inactive)

### Prompt Request the reported activity, negative = inhibition associated with `CCOCC(=O)Nc1cc(C(=O)Nc2ccccc2)ccc1Cl`
### Response -4.26% [at 2.29 µM] (inactive)

### Prompt If you can, please state the reported activity, negative = inhibition value of `CCCNc1[nH]c(=O)n(C)c(=O)c1N=O` .
### Response -16% [at 2.29 µM] (inactive)

### Prompt Reported activity, negative = inhibition, molecule `O=C(O)C[C@@H](C(=O)O)c1ccccc1[N+](=O)[O-]` : ____
### Response 0.874% [at 11.4 µM] (inactive)

### Prompt activity, negative = inhibition lookup needed for `Cc1ccc(N=Nc2c(O)ccc3cc(S(=O)(=O)O)ccc23)cc1` , thanks.
### Response -19% [at 11.4 µM] (inactive)

### Prompt Using the record for `CCN(CC(=O)Nc1ccc2c(c1)OCCO2)C(=O)c1cccc(S(=O)(=O)N2CCOCC2)c1` , report its activity, negative = inhibition.
### Response -20.1% [at 11.4 µM] (inactive)

### Prompt What value of measured activity, negative = inhibition is listed for `CC1(C)Cc2ccccc2C(N/N=C/c2cccc(F)c2)=N1` ?
### Response 14.5% [at 2.29 µM] (inactive)

### Prompt Would you mind telling me what activity, negative = inhibition value was observed for COC(=O)C1=C(C)C(c2ccc(OC)cc2)NC(=S)N1 (configuration not stated) ?
### Response -11.5% [at 2.29 µM] (inactive)

### Prompt Looking for the measured activity, negative = inhibition of `O=C(O)c1nn(-c2ccccc2-c2n[nH]c(=O)[nH]c2=O)c(=O)[nH]c1=O` , can you help?
### Response -2.84% [at 11.4 µM] (inactive)

### Prompt Look up activity, negative = inhibition: `CC1(C)N=C(N)N=C(N)N1CCCCc1ccccc1`
### Response -18.8% [at 11.4 µM] (inactive)

### Prompt Can you look up the measured activity, negative = inhibition of `Cc1nn(-c2ccccc2)c2c1C(=O)N(Cc1ccccc1)C(=O)C(C)(C)C2` for me?
### Response 1.57% [at 2.29 µM] (inactive)

### Prompt Look up activity, negative = inhibition: `O=S(=O)(O)c1ccc(-c2nnc(-c3ccccn3)nc2-c2ccc(S(=O)(=O)O)o2)o1`
### Response 6.48% [at 11.4 µM] (inactive)

### Prompt Query: activity, negative = inhibition; subject: `c1ccc2sc(SCCSc3nc4ccccc4s3)nc2c1`
### Response 14.9% [at 11.4 µM] (inactive)

### Prompt I am curious: what activity, negative = inhibition value has been reported for `CC(C)(C)N1C(=O)[C@H]2[C@@H]3[C@H](O)C=CC(=O)[C@H]3CC[C@H]2C1=O` ?
### Response -16.6% [at 11.4 µM] (inactive)

### Prompt What activity, negative = inhibition value was documented for this molecule, `C/C(C[n+]1ccccc1)=N\N=C(N)N` ?
### Response 2.37% [at 11.4 µM] (inactive)

### Prompt Data request, read-out activity, negative = inhibition, for `CC(=O)OC[C@@H]1O[C@H](C/C=N\OC[C@@H](C)[C@H](OCc2ccccc2)C(C)C)C=C[C@@H]1OC(C)=O`
### Response -18.2% [at 11.4 µM] (inactive)

### Prompt May I ask what activity, negative = inhibition has been recorded for `COc1nc(Oc2ccc(/C=N/O)cc2)nc(N(C)C)n1` ?
### Response -3.18% [at 2.29 µM] (inactive)

---

Would you kindly list activity, negative = inhibition for each of these compounds?
Molecular target: Cytochrome P450 3A4 (Homo sapiens) (UniProt P08684)
Experiment: Cytochrome panel assay with activity outcomes; further: on the % scale 0 is the no-effect control and ±100 the full control effect
Conditions: recombinant CYP, pro-luciferin dealkylation, luminescence, p450-cyp3a4; series mostly up to 57.1 µM
Screen size: about 16,000 compounds; about 5,100 (32%) were called active. Not shown: some 25% with an inconclusive outcome. The list shows a part of the results.

### Prompt If you can, please state the reported activity, negative = inhibition value of `Cc1cccc(-n2c(=O)c3c(n4cnnc24)-c2ccccc2CC32CCCCC2)c1` .
### Response -17.5% [at 2.29 µM] (inactive)

### Prompt Please look up its activity, negative = inhibition: `CC(C)=CCc1c2c(c3occ(-c4ccc(O)c(O)c4)c(=O)c3c1O)C=CC(C)(C)O2`
### Response 0.0575% [at 11.4 µM] (inactive)

### Prompt What value of measured activity, negative = inhibition is listed for `C[C@@](N)(Cc1c[nH]c2ccccc12)C(=O)O` ?
### Response -19.3% [at 11.4 µM] (inactive)

### Prompt Which value of activity, negative = inhibition has been reported for `Cc1cc(C)n(-c2nc(NC(C)C)nc(NC(C)C)n2)n1` in the records?
### Response 0.214% [at 11.4 µM] (inactive)

### Prompt Which activity, negative = inhibition reading was recorded for the compound `O=C(O)[C@@H]1CS[C@@]2(CCCN(Cc3ccccc3)C2)N1` ?
### Response 0.282% [at 11.4 µM] (inactive)

### Prompt Give the measured activity, negative = inhibition of `CC(=O)OC[C@@H]1O[C@@H](O/N=C2/C[C@@H](O)[C@@H](O)[C@@H]3[C@@H]4C(=O)N(C(C)(C)C)C(=O)[C@H]4CC[C@@H]23)[C@H](OC(C)=O)[C@H](OC(C)=O)[C@@H]1OC(C)=O` .
### Response -3.46% [at 11.4 µM] (inactive)

### Prompt Recorded activity, negative = inhibition for `CN1CCN(c2nc3c(c(=O)n(C)c(=O)n3C)n2C)CC1` , please?
### Response 0.305% [at 11.4 µM] (inactive)

### Prompt For the compound shown here, `O=S(=O)(Nc1ccc2oc(-c3ccccc3)nc2c1)c1ccccc1` , give the reported activity, negative = inhibition.
### Response -16% [at 2.29 µM] (inactive)
